# ASSAY_METHOD_TEXT: Terminal half life in HIV-negative human at 400 mg, po administered as single dose followed by 4 days wash out period followed by efavirenz dosing at 600 mg, po bid for 14 days coadministered with compound at 400 mg, po on day 12
# Format: ADME, organism-based
# CONDITION_INFO: in vivo, in the assay text read “po qd for 14 days” for “po bid for 14 days”, read-out: beta t1/2 (converted)
MEASURED_PARAMETER: half-life (h)

| MOLECULE | MEASURED_PARAMETER | REPORTED |
| --- | --- | --- |
| Cc1nnc(C(=O)NC(C)(C)c2nc(C(=O)NCc3ccc(F)cc3)c(O)c(=O)n2C)o1 [RALTEGRAVIR] | half-life | 9.1 |
